tgt: EGFR (Homo sapiens, UniProt P00533)
Sequence (P00533 25-1210): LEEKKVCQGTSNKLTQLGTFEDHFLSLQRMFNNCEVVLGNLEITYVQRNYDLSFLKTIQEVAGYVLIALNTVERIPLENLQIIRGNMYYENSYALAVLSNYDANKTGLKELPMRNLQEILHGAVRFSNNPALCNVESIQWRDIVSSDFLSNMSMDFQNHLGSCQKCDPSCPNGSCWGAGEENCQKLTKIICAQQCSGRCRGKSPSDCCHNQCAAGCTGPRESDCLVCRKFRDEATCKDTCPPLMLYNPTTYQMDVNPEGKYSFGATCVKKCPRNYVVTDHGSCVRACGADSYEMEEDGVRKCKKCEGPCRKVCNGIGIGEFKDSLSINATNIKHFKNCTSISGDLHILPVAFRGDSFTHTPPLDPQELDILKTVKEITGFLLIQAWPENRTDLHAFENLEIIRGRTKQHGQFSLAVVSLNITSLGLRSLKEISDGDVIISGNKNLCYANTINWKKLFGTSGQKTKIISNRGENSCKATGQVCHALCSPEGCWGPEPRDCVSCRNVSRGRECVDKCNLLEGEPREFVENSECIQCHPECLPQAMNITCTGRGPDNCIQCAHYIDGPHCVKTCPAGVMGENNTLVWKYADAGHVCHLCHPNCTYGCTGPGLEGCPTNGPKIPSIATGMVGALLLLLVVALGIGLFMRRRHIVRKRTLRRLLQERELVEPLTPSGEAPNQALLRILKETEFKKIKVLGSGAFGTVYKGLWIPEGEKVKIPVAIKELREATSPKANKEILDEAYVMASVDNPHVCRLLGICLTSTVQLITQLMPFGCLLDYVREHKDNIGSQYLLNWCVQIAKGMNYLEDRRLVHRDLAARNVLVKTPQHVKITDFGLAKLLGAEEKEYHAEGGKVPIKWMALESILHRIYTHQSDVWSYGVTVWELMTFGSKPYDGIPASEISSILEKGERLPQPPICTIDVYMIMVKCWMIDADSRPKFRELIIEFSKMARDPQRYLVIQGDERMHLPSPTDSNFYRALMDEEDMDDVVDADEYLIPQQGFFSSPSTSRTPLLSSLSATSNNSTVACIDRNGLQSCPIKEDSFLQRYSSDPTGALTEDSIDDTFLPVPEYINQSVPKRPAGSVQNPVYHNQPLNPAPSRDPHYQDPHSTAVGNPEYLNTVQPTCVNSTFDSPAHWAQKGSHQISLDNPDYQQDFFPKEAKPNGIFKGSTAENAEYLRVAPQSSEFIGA
experiment: EGFR assay (cellular ELISA, NIH 3T3/C7 cells)
Type: cell-based
Parameters: expressed in transfected cells; host or cells: NIH 3T3/C7
protocol-conditions: read-out: cell EGF IC50
pIC50: −log10 of the molar value.
In this section we review reported pIC50 values for a set of compounds.

Known pIC50 results, listed for orientation:
1) CNS(=O)(=O)c1ccc2c(c1)/C(=C/c1cc3ccccc3[nH]1)C(=O)N2 [Example 173]
< 4.00
2) CC1(C)CCc2cc(C=C3C(=O)Nc4ccc(Br)cc43)ccc2O1 (racemic) [Example 34]
4.42
3) Cc1c[nH]c(/C=C2\C(=O)Nc3ccccc32)c1CCC(=O)O [Example 215]
< 4.00
4) CC(=O)Nc1ccc2c(c1)NC(=O)/C2=C\c1ccc2c(c1)CCC(C)(C)O2 [Example 33]
4.27
5) COc1ccc(/C=C2/C(=O)Nc3ccccc32)cc1-c1ccccc1 [Example 65]
< 4.00
6) Cc1[nH]c2ccccc2c1/C=C1\C(=O)Nc2ccc(C(=O)O)cc21 [Example 182]
< 4.00
7) NS(=O)(=O)c1ccc2c(c1)/C(=C/c1c[nH]c3ccccc13)C(=O)N2 [Example 172]
< 4.00
8) O=C1Nc2ncccc2/C1=C\c1ccc2c(c1)CCO2 [Example 73]
< 4.30

QUERY: Report pIC50 for COc1ccc(/C=C2\C(=O)Nc3cccc(C)c32)cc1C(C)C [Example 38] please.
RESULT: < 4.00
